Data provenance is the supplement of paper PMC10567573.

B1: SNX8 (parent)
chain: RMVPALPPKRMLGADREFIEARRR

# Variants of: B1
# experimentSummary: protein stability index of a GFP-peptide fusion (GPS, HEK-293T) (PSI 1-6); higher = more stable;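 further: lentivirally expressed fusions sorted by FACS into six bins by GFP to DsRed ratio, PSI derived from sequencing read proportions per bin multiplied by bin number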
# protocolConditions: c terminus: a fixed tail appended
Label Condition met when protein stability index is at or above 4; anything below gets Condition not met.

Tell me whether protein stability index is at least 4 here: `P4F` Condition not met

Tell me whether protein stability index is at least 4 here: `D15S` Condition not met

Tell me whether protein stability index is at least 4 here: `R24C` Condition not met

Tell me whether protein stability index is at least 4 here: `P8T` Condition not met

Tell me whether protein stability index is at least 4 here: `D15C` Condition not met

Tell me whether protein stability index is at least 4 here: `R23D` Condition met

Tell me whether protein stability index is at least 4 here: `A21W` Condition not met

Tell me whether protein stability index is at least 4 here: `P4G` Condition not met

Tell me whether protein stability index is at least 4 here: `P7L` Condition not met

Tell me whether protein stability index is at least 4 here: `R22D` Condition met

Tell me whether protein stability index is at least 4 here: `M11T` Condition met

Tell me whether protein stability index is at least 4 here: `R22V` Condition not met
